target: T1, Soluble heterodimeric CD3 protein (hCD3-epsilon/hCD3-delta) with a human Fc tag (hFcΔAdp/hFc) or a mouse Fc … (human, UniProt P07766 23-126; P04234 22-105); experiment: SPR Biacore, 25 C, antibody-capture format
T1 construct: also called hCD3ε/δ; not shown: Fc tag: human (hFcΔAdp/hFc); which tag was used in Ta
T1 sequence (P07766 23-126 limits assumed, stated change not applied, chain 1 of 2): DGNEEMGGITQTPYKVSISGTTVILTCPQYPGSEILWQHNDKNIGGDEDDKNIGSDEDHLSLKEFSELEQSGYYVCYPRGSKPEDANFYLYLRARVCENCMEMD
T1 sequence (P04234 22-105 limits assumed, stated change not applied, chain 2 of 2): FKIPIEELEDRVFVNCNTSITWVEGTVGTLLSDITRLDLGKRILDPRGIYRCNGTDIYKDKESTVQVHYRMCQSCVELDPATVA
ATTRIBUTE_MEASURED: koff (s⁻¹)
# output: bare number, implied unit s⁻¹

Study these solved cases before continuing.
>  <BINDER>
H1M2712N (antibody, V domains shown, Mouse IgG1 Fc form) VH: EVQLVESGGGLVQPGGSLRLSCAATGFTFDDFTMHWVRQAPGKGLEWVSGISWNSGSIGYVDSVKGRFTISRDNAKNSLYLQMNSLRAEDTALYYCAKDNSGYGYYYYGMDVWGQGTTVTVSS VL: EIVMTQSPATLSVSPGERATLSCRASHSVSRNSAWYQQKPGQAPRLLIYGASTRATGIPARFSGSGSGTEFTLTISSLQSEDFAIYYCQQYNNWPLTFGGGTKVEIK

>  <MEASUREMENT>
0.000219

$$$$
>  <BINDER>
H2M3540N (antibody, V domains shown, Hybridoma antibody, human variable regions, mouse IgG2 Fc) VH: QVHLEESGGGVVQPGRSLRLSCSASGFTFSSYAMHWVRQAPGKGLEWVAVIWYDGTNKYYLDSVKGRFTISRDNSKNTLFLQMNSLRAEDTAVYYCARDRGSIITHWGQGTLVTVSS VL: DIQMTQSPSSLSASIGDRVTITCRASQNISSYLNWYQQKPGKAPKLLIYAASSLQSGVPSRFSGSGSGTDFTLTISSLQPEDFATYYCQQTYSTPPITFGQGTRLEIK

>  <MEASUREMENT>
0.000611

$$$$
>  <BINDER>
H2M2778N (antibody, V domains shown, Hybridoma antibody, human variable regions, mouse IgG2 Fc) VH: EVQLVESGGGLVQPGRSLRLSCAASGFTFDDYSMHWVRQAPGKGLEWVSGISWNSRSIDYADSVKGRFTISRDNAKNSLYLQMNSLRAEDTALYYCVKDNSGYGRYYYYGMDVWGQGTTVSVSS VL: KIVMTQSPATLSVSPGERATLSCRASQSVSGNLAWYQQKPGQAPRLLIYGASTRATSIPARFSGSGSGTEFTLTISSLQSEDFAVYFCQHYYNWPLTFGGGTKVEIR

>  <MEASUREMENT>
0.000189

$$$$
>  <BINDER>
H2M3547N (antibody, V domains shown, Hybridoma antibody, human variable regions, mouse IgG2 Fc) VH: EAQLVESGGGLVQPGRSLRLSCTTSGFTFDDYTMHWVRQAPGKGLEWISDISWNGGTKGYADSVKGRFTISRDNAKNSLYLQMDSLRGEDTALYYCVKDKSGYGHFYFGLDVWGQGTTVTVSS VL: DIQMTQSPSSLTASVGDRVTFTCRASQSISRHLSWYQQKPGKAPKLLIYAASSLESGVPSRFSGSGSGTDFTLTISSLHPEDFATYYCQQSYSNPPITFGQGTRLEIK

>  <MEASUREMENT>
0.000347

$$$$

From here, focus on the item given below.
Fill in the blank: the reported koff of H2M3543N (antibody, V domains shown, Hybridoma antibody, human variable regions, mouse IgG2 Fc) VH: EVQLVESGGGLVQPGRSLRLSCAASGFTFDDYTMHWVRQAPGKGLEWVSDISWNSGSIGYADSVKGRFTVSRDNAKNSLYLQMNSLRGEDTALYYCAKDMSGYAHYGYYGMDVWGQGTTVTVSS VL: DIQMTQSPSSLSASVGDRVTITCRASQSIRNYLNWYQQKPGKVPKLLIYAASSLQSGVPSRFSGSGSGTDFTLTISSLQPEDFATYYCQQSYSNPPITFGQGTRLEIK is ____.
0.000226

Data credit: patent US20190127480A1
